Quick reference: IC50 of the listed items.
- Tested on: S102 (Thai liver cancer)
- assay_notes: cells
- assay_context: Homo sapiens, 48 h, read-out: IC50 cytotoxic activity
Note: unit µM is implicit; provide only the numeric part.

Previously resolved entries follow.
COc1cccc2c1C(=O)c1c(O)c3c(c(O)c1C2=O)C[C@@](O)(C(=O)CO)C[C@@H]3O[C@H]1C[C@H](N)[C@H](O)[C@H](C)O1 [doxorubicin, reference compound] : 2.2
Cc1cc(C=O)cc(C)c1Oc1cc(Oc2c(C)cc(C=O)cc2C)c2cnccc2n1 [Compound 13a] : 69.8
Cc1cc(C=O)cc(C)c1Oc1cc(Oc2c(C)cc(C=O)cc2C)c2ccncc2n1 [Compound 14a] : 67.6

Read the next record carefully.
Data request: If you can, please state the reported IC50 value of Cc1cc(C#N)cc(C)c1Oc1cc(Oc2c(C)cc(C#N)cc2C)c2cnccc2n1 [Compound 13b] .
Data returned: 103

====

- assay_notes: in vitro
- assay_context: human, MRC-5 cells (normal embryonic lung cells)
recorded_metric: IC50 at 48 h

Cc1ccnc2c1NC(=O)c1cccnc1N2C1CC1 [NVP, nevirapine, reference compound] : > 188 µM
Cc1cc(C#N)cc(C)c1Oc1cc(Oc2c(C)cc(C#N)cc2C)c2cnccc2n1 [Compound 13b] : > 119 µM
Cc1cc(/C=C/C#N)cc(C)c1Nc1ccnc(Nc2ccc(C#N)cc2)n1 [RPV, rilpivirine, reference compound] : > 137 µM

Data request: If you can, please state the reported IC50 at 48 h value of Cc1cc(C#N)cc(C)c1Oc1cc(Oc2c(C)cc(C#N)cc2C)c2ccncc2n1 [Compound 14b] .
Data returned: > 119 µM

====

Quick reference: IC50 of the listed items.
- Tested on: A549 (Lung carcinoma)
- assay_notes: cells
- assay_context: Homo sapiens, A549, 48 h, read-out: IC50 cytotoxic activity

Previously resolved entries follow.
Cc1ccnc2c1NC(=O)c1cccnc1N2C1CC1 [NVP, nevirapine, reference compound] : > 188 µM
Cc1cc(/C=C/C#N)cc(C)c1Nc1ccnc(Nc2ccc(C#N)cc2)n1 [RPV, rilpivirine, reference compound] : > 137 µM

Read the next record carefully.
Data request: If you can, please state the reported IC50 value of Cc1cc(C#N)cc(C)c1Oc1cc(Oc2c(C)cc(C#N)cc2C)c2ccncc2n1 [Compound 14b] .
Data returned: > 119 µM
